Source listed as PubChem BioAssay (EPA / NIEHS).

target: Hepatocyte nuclear factor 6 (Homo sapiens); experiment: ATG_HNF6_CIS: Attagene CIS-FACTORIAL HepG2 Assay for human Hepatocyte Nuclear Factor 6 (HNF6) (AID 2282952); conditions: HepG2 Attagene cis-factorial HNF6 reporter transcription; actives raise or lower the signal
The source made the active and inactive calls. How the source made its calls: active means hit-call score of the fitted dose curve at least 0.9, where 1 is the maximum; inactive means score below 0.9.
Classes used: active, inactive

COMPOUND: Cc1cc(N=Nc2ccccc2C)ccc1N
LABEL: inactive
//
COMPOUND: N#CC(Br)(Br)C(N)=O
LABEL: inactive
//
COMPOUND: CC(C)(O)c1cnn2c(-c3ccc(F)c(-c4c(F)cccc4C#N)c3)cnc2n1
LABEL: inactive
//
COMPOUND: OCCCl
LABEL: inactive
//
COMPOUND: ClC1=C(Cl)C2(Cl)C3C(Cl)C=CC3C1(Cl)C2(Cl)Cl (centres undefined)
LABEL: inactive
//
COMPOUND: Clc1ccc(Cl)c(Cl)c1
LABEL: inactive
//
COMPOUND: Oc1ccc2ccc3cccc4ccc1c2c34
LABEL: inactive
//
COMPOUND: CN(C)c1ccc(C(=O)c2ccc(N(C)C)cc2)cc1
LABEL: inactive
//
COMPOUND: CCNS(=O)(=O)C(F)(F)C(F)(F)C(F)(F)C(F)(F)C(F)(F)C(F)(F)C(F)(F)C(F)(F)F
LABEL: inactive
//
COMPOUND: O=Cc1ccco1
LABEL: inactive
//
COMPOUND: CC(C)(C)OOC(=O)c1ccccc1
LABEL: inactive
//
COMPOUND: CCCCOC(=O)c1ccccc1C(=O)OCc1ccccc1
LABEL: inactive
//
COMPOUND: C[C@]12C=CC3=C4CCC(=O)C=C4CC[C@H]3[C@@H]1CC[C@@H]2O
LABEL: inactive
//
COMPOUND: COC(=O)Nc1nc2ccccc2[nH]1
LABEL: inactive
//
COMPOUND: OCCOCCO
LABEL: inactive
//
COMPOUND: COc1cc(C=O)cc2c1[C@H](COC(N)=O)[C@]1(OC(C)=O)ON2C[C@H]2[C@@H]1N2C(C)=O
LABEL: active
//
COMPOUND: ClCCOCCCl
LABEL: inactive
//
COMPOUND: C=CCc1ccc2c(c1)OCO2
LABEL: inactive
//
COMPOUND: OCCCBr
LABEL: inactive
//
COMPOUND: CS(=O)(=O)NC(=O)c1cc(Oc2ccc(C(F)(F)F)cc2Cl)ccc1[N+](=O)[O-]
LABEL: inactive
//
COMPOUND: CC(C)(C)C(O)(CCc1ccc(Cl)cc1)Cn1cncn1 (centres undefined)
LABEL: inactive
//
COMPOUND: Nc1ccc(Oc2ccc(N)cc2)cc1
LABEL: inactive
//
COMPOUND: Clc1ccc(C(c2ccc(Cl)cc2)C(Cl)Cl)cc1
LABEL: inactive
//
COMPOUND: CCC(C)c1ccc(O)cc1 (centres undefined)
LABEL: inactive
//
COMPOUND: CCC[CH2][Sn]([Cl])([CH2]CCC)[CH2]CCC
LABEL: inactive
//
COMPOUND: O=C1CCCO1
LABEL: inactive
//
COMPOUND: Cc1ccc(N)cc1
LABEL: inactive
//
COMPOUND: Cc1ccc([N+](=O)[O-])cc1
LABEL: inactive
//
COMPOUND: CCOC(=O)[C@]1(c2ccccc2)Oc2ccccc2[C@@H]1N
LABEL: active
